System: UACC-257
Test: NCI tumour cell line growth inhibition, 48 h
Active and inactive are the calls of the source. Rule as the data show it: active = GI50 up to about 1.1 µM and inactive = higher.
Returns: one label drawn from class 1 for active, class 0 for inactive

Compound | Class label
COc1ccc2c(c1)c(=O)c1c(NCCCN(C)CCCNc3ccc4c(=O)n(CCN(C)C)c(=O)n5c6ccc(OC)cc6c(=O)c3c45)ccc3c(=O)n(CCN(C)C)c(=O)n2c31 | class 1
CC(=O)O[C@@]1(C)[C@@H](C)C(=O)O[C@@H]2CCN3CC=C(COC(=O)[C@]1(C)O)[C@H]23 | class 0
COc1cc(CCc2ccc(N)cc2)cc(OC)c1OC | class 0
C=C1C(C2(C)C(OC(C)=O)CC(=O)OC(C)(COC(C)=O)C2CC(=O)OC)C(OC=O)C(OC(=O)C(O)C(C)CC)C2(C)C(c3ccoc3)CC(=O)C12O (centres undefined) | class 0
O=C(Nc1cc2cc([N+](=O)[O-])ccc2oc1=O)c1cccs1 | class 0
COc1cc2c(cc1OC)C1Cc3ccccc3CN1CCC2 (centres undefined) | class 0
O=C(NC1C(=O)NNC1c1ccccc1Cl)c1ccccc1 (centres undefined) | class 0
COc1cc(Nc2nc3cc(C(F)(F)F)ccc3nc2C)cc(OC)c1OC | class 0

Now examine the next entry.
Incoming: Returns: the outcome recorded for [N-]=[N+]=C1C(=O)C2CC3CC1CC2C3 (centres undefined) in this assay.
Outgoing: class 0
